test: In vivo pharmacokinetic evaluation in mice; parameters: species or system ICR mice; conditions: ICR, mouse, PO (30 mg/kg), plasma
measured-attribute: half-life (h)

Cc1cc(C2=NO[C@@](c3cc(Cl)cc(Cl)c3)(C(F)(F)F)C2)ccc1C(=O)NCC(=O)NC1(C(F)(F)F)CC1 [Example 011]; 27.8
Cc1cc(C2=NO[C@@](c3cc(Cl)cc(C(F)(F)F)c3)(C(F)(F)F)C2)ccc1C(=O)NCC(=O)NC1(C(F)(F)F)CC1 [Example 008]; 31.6
Cc1cc(C2=NOC(c3cc(Cl)cc(Cl)c3)(C(F)(F)F)C2)ccc1C(=O)NCC(=O)NC1CC1 (stereo not drawn) [Example 39 (Comparative Example 1), reference compound]; 11.8

* * *

test system: Mite; test: Killing efficacy test against agricultural pests: mite test (treated filter paper); assay type: in vivo, mites; details: 2 mg/L, after 72 h
The compounds listed here are annotated with their Corrected Mortality Rate (%).
measured-attribute: Corrected Mortality Rate (%)

Cc1cc(C2=NO[C@@](c3cc(Cl)cc(Cl)c3)(C(F)(F)F)C2)ccc1C(=O)NCC(=O)NC1(C(F)(F)F)CC1 [Example 011]; 100%
Cc1cc(C2=NOC(c3cc(C(F)(F)F)cc(C(F)(F)F)c3)(C(F)(F)F)C2)ccc1C(=O)NCC(=O)NC1(C(F)(F)F)CC1 (stereo not shown) [Example 030]; 96%
Cc1cc(C2=NO[C@@](c3cc(Cl)cc(C(F)(F)F)c3)(C(F)(F)F)C2)ccc1C(=O)NCC(=O)NC1(C(F)(F)F)CC1 [Example 008]; 100%
Cc1cc(C2=NOC(c3cc(Cl)c(Cl)c(C(F)(F)F)c3)(C(F)(F)F)C2)ccc1C(=O)NCC(=O)NC1(C(F)(F)F)CC1 (stereo not shown) [Example 029]; 100%
